meta.source: ChEMBL document CHEMBL1155193

# testProtocol: Lipophilicity, logD at pI
# Type: physicochemical
# conditionLabel: octanol/water
Starred links: 1 amine or outer side, 2 acyl side, 3 side chain; linkers in the order of their positions; H or OH if unused. Positions of bridges follow the written chain, without caps; N, C: chain ends. Non-standard residues stand in square brackets, D forms with d. Residues, ends and D or L forms follow the SMILES beside them. Adda = CO[C@@H](Cc1ccccc1)[C@@H](C)/C=C(C)/C=C/[C@H](N[*:1])[C@H](C)C(=O)[*:2]; X1 = CC(C)C[C@H](N[*:1])C(=O)C[C@@H](C(=O)O)[C@H](C)C(=O)[*:2]; NMeDha = C=C(NC)C(=O)O
measuredAttribute: logD
Just the number, please.

Example entries begin here.
compound	logD
C/C=C1/NC(=O)CC[C@H](C(=O)OCOC(C)=O)NC(=O)[C@@H](C)[C@H](/C=C/C(C)=C/[C@H](C)[C@H](Cc2ccccc2)OC)NC(=O)[C@H](CCCNC(=N)N)NC(=O)[C@@H](C)[C@H](C(=O)OCOC(C)=O)NC1=O	0.4
C/C=C1/NC(=O)CC[C@H](C(=O)O)NC(=O)[C@@H](C)[C@H](/C=C/C(C)=C/[C@H](C)[C@H](Cc2ccccc2)OC)NC(=O)[C@H](CCC/N=C2/N=C(c3ccccc3)C(O)N2)NC(=O)[C@@H](C)[C@H](C(=O)O)NC1=O (stereo partly drawn)	-1.4

Incoming: Would you mind telling me what logD value was observed for C=C1C(=O)N[C@H](C)C(=O)N[C@@H](CC(C)C)C(=O)C[C@@H](C(=O)O)[C@H](C)C(=O)N[C@@H](C)C(=O)N[C@@H](/C=C/C(C)=C/[C@H](C)[C@H](Cc2ccccc2)OC)[C@H](C)C(=O)N[C@@H](C(=O)O)CCC(=O)N1C [MICROCYSTIN-LA] ([NMeDha][dA][X1]A[Adda][dE]-OH; lactam N-6) ?
Outgoing: 0.3
